The following compounds are listed with their measured TGI values.
Test system: M19-MEL melanoma
assayExplanation: NCI tumour cell line growth inhibition, 48 h

O=[N+]([O-])c1ccc([N+]2=NC(c3ccccc3)=NN(c3ccccc3)C2)cc1 : > 100 µM
COc1nc2c(nc(N)n2C2OCC(O)C(O)C2O)c(=O)n1C (centres undefined) : > 100 µM
O=C(Nc1nc2ccc([N+](=O)[O-])cc2s1)C(=O)C(C(=O)c1ccncc1)C1OC(=O)c2ccccc21 (centres undefined) : > 100 µM
CS/C(c1ccccc1)=[N+](\[O-])Cc1ccccc1 : > 100 µM
Cc1ncc(CCl)c(CCl)c1O : > 100 µM

Input: Query (compound): `COc1cc(/C=C\c2ccc(Br)cc2)cc(OC)c1OC` ; field requested: TGI
Output: > 100 µM

Input: Same for `S=c1sc2cscc2s1`
Output: 34.3 µM

Input: Same again, this time with `CN(C)c1ccc(/C=C/C(=O)O)cc1`
Output: > 100 µM

Input: And the next one, CC1[C@@H]2CC=C3[C@H]4CCC5Cc6nc7c(nc6C[C@@]5(C)C4(O)CC(=O)[C@]32CO[C@]12OC(C)(C)CC2O)CC1CC[C@@H]2C3=C[C@H]4O[C@@]5(O[C@@](C)(CO)C[C@@H]5O)C(C)[C@@]4(O)[C@]3(C)[C@@H](O)CC2[C@]1(C)C7 (some centres undefined) ?
Output: > 3.6 µM
